Every entry's value here was drawn from the supplement of paper PMC11208160.

assay: recombinant UMI read abundance after kanamycin selection (control-corrected) (log10(CPM+1)); higher = more efficient recombination; extreme values may be limits of the assay; sequences stand for … in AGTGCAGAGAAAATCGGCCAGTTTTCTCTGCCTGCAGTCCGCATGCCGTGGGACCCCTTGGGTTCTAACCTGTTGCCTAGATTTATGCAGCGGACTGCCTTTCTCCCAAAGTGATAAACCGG…AGGTTGGTTTCACT; site = the 11-nt donor;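 also: IS621 bridge recombinase in Escherichia coli cells against a fixed T5 target plasmid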
RECORDED ENDPOINT: recombinant UMI read abundance (log10)
Lab note: record the figure alone, no unit after it.

Consider the reported recombinant UMI read abundance (log10) for these sequences:
GCTACGCCATGGACCGGTTTTCCCGGTAATCCGTATTTGTA (site GCGACGCCTTA) = 0.162
TATAGCGCATGGACCGGTTTTCCCGGTAATCCGTATTTGGC (site TATAGCGCTGC) = 2.48
ACTAGAGCATGGACCGGTTTTCCCGGTAATCCGTATTTGGT (site ACTAGTGCTAC) = 0.4
CGGAATCCATGGACCGGTTTTCCCGGTAATCCGTATTTGGG (site CGGAATCCTCC) = 0.0126
GGAGTGGCATGGACCGGTTTTCCCGGTAATCCGTATTTGGG (site GGAGTGGCTTC) = 0.00897

Report recombinant UMI read abundance (log10) for CAGTATCCATGGACCGGTTTTCCCGGTAATCCGTATTTGTT (site CGGAATCCTAA) please.
0.00316

What do we get for CGATTTACATGGACCGGTTTTCCCGGTAATCCGTATTTGGC (site CGATTTACTGC) ?
0

What do we get for TACGGCCCATGGACCGGTTTTCCCGGTAATCCGTATTTGTT (site GACGGCCCTAA) ?
0.00736

What do we get for ATAGTAGCATGGACCGGTTTTCCCGGTAATCCGTATTTGAC (site ATAGTAGCTGT) ?
3.06

====

experiment: recombinant UMI read abundance after kanamycin selection (control-corrected) (log10(CPM+1)); higher = more efficient recombination; extreme values may be limits of the assay; sequences stand for … in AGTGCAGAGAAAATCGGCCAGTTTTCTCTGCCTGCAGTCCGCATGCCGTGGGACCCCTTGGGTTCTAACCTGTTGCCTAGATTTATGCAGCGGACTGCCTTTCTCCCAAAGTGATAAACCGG…AGGTTGGTTTCACT; site = the 11-nt donor
# binarize recombinant UMI read abundance (log10): threshold 0.2 inclusive, high side True, low side False

Consider the following illustrative entries.
CTAGTATCATGGACCGGTTTTCCCGGTAATCCGTATTTGGC (site CTAGTATCTGA) = True
GGATGGACATGGACCGGTTTTCCCGGTAATCCGTATTTGCC (site GGATCGACTGG) = False
GAACTCACATGGACCGGTTTTCCCGGTAATCCGTATTTGAT (site GACCTCACTAT) = True

State whether the measured recombinant UMI read abundance (log10) reaches 0.2, counting equality as reaching it, for CGACCATCATGGACCGGTTTTCCCGGTAATCCGTATTTGCT (site CGAGCATCTAG)
False

What do we get for ACTAAAGCATGGACCGGTTTTCCCGGTAATCCGTATTTGAT (site ACTAAAGCTAT) ?
True

====

Measured recombinant UMI read abundance (log10) accompanies every entry in the list below.
test: recombinant UMI read abundance after kanamycin selection (control-corrected) (log10(CPM+1)); higher = more efficient recombination; extreme values may be limits of the assay; sequences stand for … in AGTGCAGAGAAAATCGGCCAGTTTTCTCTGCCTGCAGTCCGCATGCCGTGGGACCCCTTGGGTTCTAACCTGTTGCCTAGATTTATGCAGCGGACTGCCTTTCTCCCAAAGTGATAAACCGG…AGGTTGGTTTCACT; site = the 11-nt donor
Lab note: record the figure alone, no unit after it.

Consider the reported recombinant UMI read abundance (log10) for these sequences:
CTCTACACATGGACCGGTTTTCCCGGTAATCCGTATTTGCT (site CTCTACACTTG) = 1.15
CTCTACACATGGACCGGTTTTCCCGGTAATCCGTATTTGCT (site CTTTACACTAG) = 0.644
CCGAATACATGGACCGGTTTTCCCGGTAATCCGTATTTGGC (site CCAAATACTGC) = 0

Report recombinant UMI read abundance (log10) for GCATGCACATGGACCGGTTTTCCCGGTAATCCGTATTTGTA (site GAATGCACTTA) please.
0.245

What do we get for CGATCGACATGGACCGGTTTTCCCGGTAATCCGTATTTGTG (site CGATCGACTTA) ?
0.319

What do we get for GCTATTGCATGGACCGGTTTTCCCGGTAATCCGTATTTGCC (site GCTAATGCTGG) ?
0

What do we get for GACAAAACATGGACCGGTTTTCCCGGTAATCCGTATTTGGC (site GACAAAACTGC) ?
0

What do we get for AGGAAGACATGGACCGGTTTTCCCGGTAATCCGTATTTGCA (site AGGAGGACTTT) ?
0.0142

What do we get for ACCGGTCCATGGACCGGTTTTCCCGGTAATCCGTATTTGCA (site CCCGGTCCTTG) ?
0

What do we get for TCCTTATCATGGACCGGTTTTCCCGGTAATCCGTATTTGTT (site TCCTTATCTAA) ?
0

What do we get for CGATCATCATGGACCGGTTTTCCCGGTAATCCGTATTTGGG (site CGATCATCTAG) ?
0
